# Test Name: PK of compound of Formula (Ia) after single subcutaneous dose of solution formulations in Wistar Han rats
# Assay type: in vivo
# Test Context: male, Wistar Han, rat, plasma, sc, 50 mg/kg, 3024 h; mean, n = 3 rats; SC 50 mg/kg; solution V, 300 mg/mL
Readout Kind: concentration at 3024 h (nM)
Provide only the numeric value, understood in nM.

# input Suppose we examine the compound CC(C)(C#Cc1ccc(-c2ccc(Cl)c3c(NS(C)(=O)=O)nn(CC(F)(F)F)c23)c([C@H](Cc2cc(F)cc(F)c2)NC(=O)Cn2nc(C(F)(F)F)c3c2C(F)(F)[C@@H]2C[C@H]32)n1)S(C)(=O)=O [compound of Formula (Ia)] ; what concentration at 3024 h value has been reported?
# output 99.1

These measurements were taken from patent US11807625B2.
